# Study target: T1, PD-1 molecule (refolded, purified and biotinylated PD-1 of Example 2) (UniProt Q15116 33-150, biotinylated with BirA enzyme (site not stated))
# T1 construct: also called Programmed Death-1
# T1 sequence (Q15116 33-150 limits assumed): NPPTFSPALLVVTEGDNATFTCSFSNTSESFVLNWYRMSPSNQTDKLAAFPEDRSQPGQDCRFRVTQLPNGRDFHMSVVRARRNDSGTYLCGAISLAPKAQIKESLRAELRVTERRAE
# Procedure text: SPR (BIAcore T200), single-cycle kinetics; biotinylated PD-1 captured via streptavidin, PDL-1 variant in solution
# Procedure: The anti-streptavidin antibody (GenScript) was added to the coupling buffer (10 mM sodium acetate buffer, pH 4.77). The antibody was then flowed through a CMS chip previously activated with EDC and NHS to immobilize the antibody on the chip surface. Finally, the unreacted activation surface was blocked with a solution of ethanolamine hydrochloride to complete the coupling process. […]
pKd: −log10 of the molar value.
Reported pKd is given for each of the following binders.

- Binder: "high affinity PDL-1 molecule L1C2 (ligand) FTVTVPKDLYVVEYGSNMTIECKFPVEKQLDLAALQVNWFMEDKNIIQFVHGEEDLKVQHSSYRQRARLLKDQLSLGNAALQITDVKLQDAGVYVCLISYGGADYKRITVKVNAPYNKINQRILVVDPVTSEHELTCQAEGYPKAEVIWTSSDHQVLSGKTTTTNSKREEKLFNVTSTLRINTTTNEIFYCTFRRLDPEENHTAELVIPEL"
  pKd: 6.12
- Binder: "high affinity PDL-1 molecule L2H3 (ligand) FTVTVPKDLYVVEYGSNMTIECKFPVEKQLDLAALQVHWFMEDKNILSFVHGEEDLKVQHSSYRQRARLLKDQLSLGNAALQITDVKLQDAGVYRCMISYGGADYKRITVKVNAPYNKINQRILVVDPVTSEHELTCQAEGYPKAEVIWTSSDHQVLSGKTTTTNSKREEKLFNVTSTLRINTTTNEIFYCTFRRLDPEENHTAELVIPEL"
  pKd: 5.05
